# Experiment notes: Resistance ratio of IC50 for human EPP85-181RD cells to IC50 for human EPP85-181P cells
# Assay type: functional
Each entry below carries its recorded Ratio IC50.
Lab note: write the figure by itself, no unit.

COc1ccc(C(=O)O[C@H]2[C@@H](C)C[C@]3(OC(C)=O)C(=O)/C(C)=C/[C@@H]4[C@H](CC/C(C)=C/[C@@H]23)C4(C)C)cc1 [JOLKINOATE K]; 0.62
CCCC(C)C(=O)O[C@H]1[C@@H](C)C[C@]2(OC(C)=O)C(=O)/C(C)=C/[C@@H]3[C@H](CC/C(C)=C/[C@@H]12)C3(C)C (stereo not given in full) [JOLKINOATE E]; 1.29
CC(=O)O[C@]12C[C@H](C)[C@H](OS(=O)(=O)c3ccccc3)[C@@H]1/C=C(\C)CC[C@H]1[C@@H](/C=C(\C)C2=O)C1(C)C [JOLKINOATE M]; 0.62
CC(=O)O[C@]12C[C@H](C)[C@H](OC(=O)c3ccccc3)[C@@H]1/C=C(\C)CC[C@H]1[C@@H](/C=C(\C)C2=O)C1(C)C [JOLKINOATE I]; 0.66

Prompt: Need Ratio IC50 of CCCC(=O)O[C@H]1[C@@H](C)C[C@]2(OC(C)=O)C(=O)/C(C)=C/[C@@H]3[C@H](CC/C(C)=C/[C@@H]12)C3(C)C [JOLKINOATE C] , thanks.
Completion: 0.85
